Experiment: qHTS Assay for Lipid Storage Modulators in Drosophila S3 Cells;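 as to cell number change: cells counted by Cell Tracker Red CMTPX staining in the red channel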
Details: BODIPY lipid droplet fluorescence, 18-24 h, cells fed with added oleic acid; measured here: cell count max response
Text: NIH Molecular Libraries Probe Production Centers Network [MLPCN] NIH Chemical Genomics Center [NCGC] […] Triacsin C (Sigma-Aldrich T-4540), an inhibitor of long-chain fatty acyl CoA synthetase that blocks synthesis of triglycerides, was used as a positive control for lipid under-storage. […] Fluorescence was detected by excitation of the fluorophores with a 488-nm laser on an Acumen Explorer (TTP Lab Tech). […] Cells were detected using channel 3 (575-640 nm) with 5-um width and 100-um depth filters. […]
Hit rate of the full screen: of about 320,000 compounds, about 2,100 (0.66%) were called active. Another 53% or so got no clear call; they are omitted. This is one part of a sample in which actives are shown more often than they occur.
Here the recorded cell number change is given for each entry.
Quantity Measured: cell number change

• CCc1ccc(N(CC(=O)O)S(=O)(=O)c2c(C)noc2C)cc1 = 7.92%
• CCC(C)C(NC(=O)c1ccc(Cl)cc1)C(=O)O (centres undefined) = -1.98%
• CCOC(=O)C1CCN(C(=O)CSc2c3c(nc4ccccc24)CCC3)CC1 = 8.19%
• O=C(O)c1ccc(Sc2nnc(-c3cccc(Br)c3)o2)c([N+](=O)[O-])c1 = -23.6%

====

assay: qHTS Assay for Lipid Storage Modulators in Drosophila S3 Cells; conditions: BODIPY lipid droplet fluorescence, 18-24 h, cells fed with added oleic acid; series mostly up to 46.1 µM
The whole screen tested about 320,000 compounds, of which about 2,100 (0.66%) were called active. Another 53% or so got no clear call; they are omitted. Calls come from the whole dose curve; as a rule, active = well fitted inhibition curve with a large enough effect in the signal ratio, with a control signal flat (not every such curve was filed as active); inconclusive = small, poorly fitted or top-dose-only effect, or effect the other way, or a change in a side signal; inactive = flat fitted curve, though single readings scatter; the % refers to the signal ratio. Many of the other results were omitted from the sample, so actives are more common in it than they were.
Outcomes: active, inactive

* Cc1cc(NS(=O)(=O)c2c(C)[nH]c(=O)[nH]c2=O)ccc1Br | inactive
* O=C(CCCN1C(=O)S/C(=C/c2ccccc2)C1=S)Nc1ccc(C(=O)O)cc1 | inactive
* CCN(Cc1ccccc1)C(=O)COC(=O)c1cnc(C)cn1 | inactive
* Cc1cc2nc(SCC(=O)N(C)C)c3c(c2cc1C)CCCC3 | inactive
* CC1CN(C(=O)c2ccc(C(=O)c3ccccc3)cc2)CC(C)O1 (stereo not drawn) | inactive
* Cn1c2c(c(=O)n(C)c1=O)C(NC(=O)c1cccs1)(C(F)(F)F)C(=O)N2 (stereo not drawn) | inactive
* COCCCNC(=O)CCNS(=O)(=O)c1ccc(C)cc1 | inactive
* Cn1nc(C(=O)NNC(=O)C(CCC(N)=O)NS(=O)(=O)c2ccc(Cl)cc2)c2ccccc2c1=O (stereo not drawn) | inactive
* CC(=O)Nc1ccc(S(=O)(=O)NCCc2ccccc2)cc1 | inactive
* Cc1ccc(C)c(SCC(=O)NCc2ccco2)c1 | inactive
* Cc1cc(C)cc(N2CC(C)(C)C2=O)c1 | inactive
* Cc1ccc(S(=O)(=O)N2CCN(C(=O)CNC(=O)c3sc4ccccc4c3Cl)CC2)cc1 | inactive
* CC(C)CNC(=O)CC1Nc2ccccc2NC1=O (stereo not drawn) | active
* CCOC(=O)C1CCCN(C(=O)c2ccc3nc(-c4ccc(OC)c(OC)c4)c(-c4ccc(OC)c(OC)c4)nc3c2)C1 (stereo not drawn) | active
* CCC(=O)NC1(C(F)(F)F)C(=O)Nc2c1c(=O)n(C)c(=O)n2C (stereo not drawn) | inactive
* CC(CNC(=O)CN1C(=O)c2cccnc2Oc2ccc(Cl)cc21)c1ccccc1 (stereo not drawn) | active
* Cn1c2c(c(=O)n(C)c1=O)C(NC(=O)c1ccco1)(C(F)(F)F)C(=O)N2 (stereo not drawn) | inactive
* CC(CNC(=O)CCC(=O)N1CCOc2ccccc21)c1ccccc1 (stereo not drawn) | inactive
* O=C(Nc1ccc(Cl)cc1)C1CCCN(c2ncnc3c2nc2n3CCCCC2)C1 (stereo not drawn) | inactive
* Cn1c(Cn2c3ccccc3c3ccccc32)n[nH]c1=S | inactive
* CCCCC(CC)C(=O)Nc1ccc(Nc2ccccc2)cc1 (stereo not drawn) | inactive
* C=CCn1c(CCNC(=O)c2cccs2)nnc1SCC(=O)c1cccc([N+](=O)[O-])c1 | inactive
* Cc1ccsc1C(=O)NCCc1nnc2ccccn12 | inactive
* COc1ccc(NC2CCCN(C(=O)c3ccc4nc(C)c(C)nc4c3)C2)cc1OC (stereo not drawn) | inactive
* CC1CN(C(=O)CCN2C(=O)c3ccccc3C2=O)CC(C)O1 (stereo not drawn) | inactive
* CC(CNC(=O)CCC(=O)N1CCOc2ccc(Cl)cc21)c1ccccc1 (stereo not drawn) | active
* Cc1cc(C)c(OCCCCN(C)Cc2ccccc2)c(C)c1 | active
* C=CCn1c(=O)c2c(nc(-n3nc(C)cc3C)n2C)n(C)c1=O | inactive
